test system: Liver; test: Unbound intrinsic clearance in rat liver microsomes at 10 uM preincubated for 5 mins followed by NADPH addition measured after 60 mins by HPLC-UV-MS analysis; format: ADME, microsome; details: 1 h
Kindly state log10 CL free for each of the entries shown.
Units before log transform: mL/min/kg; reported quantity: CL free; transform: log10.

A selection of reference data follows.
> print(dat)
                                chem.smiles  measurement.label  obs.value
1  CCS(=O)(=O)Nc1ccc(Oc2ccc(Cl)cc2)c(-c2cn(C)c(=O)c3[nH]ccc23)c1      log10 CL free       2.30
2  Cn1cc(-c2cc(NS(C)(=O)=O)ccc2OCc2ccccc2)c2cc[nH]c2c1=O      log10 CL free       2.75
3  Cn1cc(-c2cc(NS(C)(=O)=O)ccc2Oc2ccccc2C(F)(F)F)c2cc[nH]c2c1=O      log10 CL free       2.40
4  CCS(=O)(=O)Nc1ccc(OC2CCN(C)CC2)c(-c2cn(C)c(=O)c3[nH]ccc23)c1      log10 CL free       1.90
5  CCS(=O)(=O)Nc1ccc(Oc2ccc(C#N)cc2)c(-c2cn(C)c(=O)c3[nH]ccc23)c1      log10 CL free       1.91

Kindly give each listed record's log10 CL free.
1. Cn1cc(-c2cc(NS(C)(=O)=O)ccc2Oc2ccccc2)c2cc[nH]c2c1=O
2. Cn1cc(-c2cc(NS(C)(=O)=O)ccc2Oc2cccnc2)c2cc[nH]c2c1=O
3. Cn1cc(-c2cc(NS(C)(=O)=O)cnc2Oc2ccccc2)c2cc[nH]c2c1=O
4. CN(C)S(=O)(=O)Nc1ccc(Oc2ccccc2)c(-c2cn(C)c(=O)c3[nH]ccc23)c1
5. Cn1cc(-c2cc(NS(=O)(=O)CC(F)(F)F)ccc2Oc2ccccc2)c2cc[nH]c2c1=O
6. Cn1cc(-c2cc(NS(C)(=O)=O)ccc2Oc2ccc(F)cc2Cl)c2cc[nH]c2c1=O
7. CCNC(=O)c1ccc(Oc2ccccc2)c(-c2cn(C)c(=O)c3[nH]ccc23)c1

Result:
[3.30, 2.54, 2.78, 3.60, 3.10, 2.50, 3.60]

Kindly give each listed record's log10 CL free.
1. Cn1cc(-c2cc(S(N)(=O)=O)ccc2Oc2ccccc2)c2cc[nH]c2c1=O
2. Cn1cc(-c2cc(NS(C)(=O)=O)ccc2OC2CCC(F)(F)CC2)c2cc[nH]c2c1=O
3. CCS(=O)(=O)Nc1ccc(OCC(C)(C)C)c(-c2cn(C)c(=O)c3[nH]ccc23)c1
4. CCS(=O)(=O)Nc1ccc(Oc2ccccc2)c(-c2cn(C)c(=O)c3[nH]ccc23)c1

Result:
3.12
2.30
2.64
3.52

* * *

target: Bromodomain testis-specific protein (Homo sapiens, UniProt Q58F21); assay: Binding affinity to BRDT BD1 to BD2 (N21 to P380 residues) (unknown origin)
measurement_label: pKi
Numbers only, as −log10 of the molar value.

Query: Give the measured pKi for CCS(=O)(=O)Nc1ccc(Oc2ccc(F)cc2F)c(-c2cn(C)c(=O)c3[nH]ccc23)c1
Result: 8.66

* * *

system: Liver; test: Unbound intrinsic clearance in mouse liver microsomes; format: ADME, microsome
Mark each entry label 1 if its CL free sits below 900 mL/min/kg, and label 0 for all others.

Past entries and their recorded results:
> print(dat)
                                   compound    label
1  Cn1cc(-c2cc(NS(C)(=O)=O)ccc2Oc2ccccc2C(F)(F)F)c2cc[nH]c2c1=O  label 0
2  Cn1cc(-c2cc(S(C)(=O)=O)ccc2Oc2ccccc2)c2cc[nH]c2c1=O  label 1
3  CCS(=O)(=O)Nc1ccc(OC2CCC(N(C)C)CC2)c(-c2cn(C)c(=O)c3[nH]ccc23)c1 (centres undefined)  label 1

Turning now to a further compound:
Query: CL free strictly < 900 mL/min/kg for this compound? CCS(=O)(=O)Nc1ccc(OCC(C)(C)C)c(-c2cn(C)c(=O)c3[nH]ccc23)c1
Result: label 0

* * *

molecular target: Bromodomain adjacent to zinc finger domain protein 2B (Homo sapiens); test: Binding affinity to human BAZ2B (S2054 to S2168 residues) expressed in bacterial expression system by BROMOscan assay
Sequence (Q9UIF8 whole entry, the tested form may be a part): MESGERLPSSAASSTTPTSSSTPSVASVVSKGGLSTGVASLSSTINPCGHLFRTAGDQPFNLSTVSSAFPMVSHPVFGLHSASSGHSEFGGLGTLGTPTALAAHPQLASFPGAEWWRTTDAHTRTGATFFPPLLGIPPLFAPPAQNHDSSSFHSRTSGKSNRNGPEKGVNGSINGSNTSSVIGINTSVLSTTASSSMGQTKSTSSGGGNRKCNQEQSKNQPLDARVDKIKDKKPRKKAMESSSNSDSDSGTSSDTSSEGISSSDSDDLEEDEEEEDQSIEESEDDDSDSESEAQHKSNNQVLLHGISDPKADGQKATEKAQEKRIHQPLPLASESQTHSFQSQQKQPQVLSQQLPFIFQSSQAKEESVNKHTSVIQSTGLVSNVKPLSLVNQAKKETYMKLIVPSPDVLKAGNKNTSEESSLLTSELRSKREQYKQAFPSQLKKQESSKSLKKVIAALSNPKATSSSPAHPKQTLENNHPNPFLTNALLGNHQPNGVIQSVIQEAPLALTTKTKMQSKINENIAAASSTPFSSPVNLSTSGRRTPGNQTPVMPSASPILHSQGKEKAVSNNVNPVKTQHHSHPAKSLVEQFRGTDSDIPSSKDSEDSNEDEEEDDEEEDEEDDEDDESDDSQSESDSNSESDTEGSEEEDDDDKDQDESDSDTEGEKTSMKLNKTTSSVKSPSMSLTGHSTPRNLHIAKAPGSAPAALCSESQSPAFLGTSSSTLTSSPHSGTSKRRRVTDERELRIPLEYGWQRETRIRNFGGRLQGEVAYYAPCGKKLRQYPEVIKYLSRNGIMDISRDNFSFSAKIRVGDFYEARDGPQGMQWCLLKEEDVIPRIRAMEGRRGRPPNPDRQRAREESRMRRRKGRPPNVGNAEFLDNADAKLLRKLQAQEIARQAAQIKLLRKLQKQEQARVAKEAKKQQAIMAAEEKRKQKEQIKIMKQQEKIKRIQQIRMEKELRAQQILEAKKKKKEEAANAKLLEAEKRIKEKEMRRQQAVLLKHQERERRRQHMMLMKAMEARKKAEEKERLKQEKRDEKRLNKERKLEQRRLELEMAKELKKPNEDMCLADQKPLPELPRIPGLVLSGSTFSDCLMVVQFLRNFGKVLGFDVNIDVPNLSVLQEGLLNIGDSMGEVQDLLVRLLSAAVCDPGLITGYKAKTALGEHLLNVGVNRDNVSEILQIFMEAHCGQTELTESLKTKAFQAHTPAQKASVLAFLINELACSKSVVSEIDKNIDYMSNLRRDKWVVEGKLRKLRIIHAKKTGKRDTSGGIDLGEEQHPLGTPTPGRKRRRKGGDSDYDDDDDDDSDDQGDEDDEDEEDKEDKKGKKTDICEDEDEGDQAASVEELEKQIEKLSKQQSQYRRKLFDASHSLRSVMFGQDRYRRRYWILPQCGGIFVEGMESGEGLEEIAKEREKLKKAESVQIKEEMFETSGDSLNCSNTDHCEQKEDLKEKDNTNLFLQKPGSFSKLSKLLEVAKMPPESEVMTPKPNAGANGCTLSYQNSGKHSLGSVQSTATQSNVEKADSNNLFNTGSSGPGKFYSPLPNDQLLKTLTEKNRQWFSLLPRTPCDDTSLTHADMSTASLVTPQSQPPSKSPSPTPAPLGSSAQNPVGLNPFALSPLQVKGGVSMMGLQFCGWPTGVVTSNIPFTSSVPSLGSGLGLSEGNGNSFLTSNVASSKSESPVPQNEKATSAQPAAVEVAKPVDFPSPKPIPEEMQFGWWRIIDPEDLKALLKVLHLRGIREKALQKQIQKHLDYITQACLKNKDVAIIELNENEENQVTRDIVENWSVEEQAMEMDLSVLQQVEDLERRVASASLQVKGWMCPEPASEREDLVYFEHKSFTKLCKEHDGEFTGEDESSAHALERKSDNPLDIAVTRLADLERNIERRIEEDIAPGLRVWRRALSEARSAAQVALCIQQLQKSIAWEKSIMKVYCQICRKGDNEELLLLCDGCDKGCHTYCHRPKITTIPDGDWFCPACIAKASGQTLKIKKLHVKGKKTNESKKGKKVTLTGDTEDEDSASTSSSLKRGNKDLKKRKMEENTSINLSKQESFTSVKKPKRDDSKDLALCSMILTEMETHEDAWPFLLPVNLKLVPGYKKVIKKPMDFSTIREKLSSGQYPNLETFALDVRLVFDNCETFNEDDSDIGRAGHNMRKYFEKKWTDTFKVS
pKd: −log10 of the molar value.
measurement_label: pKd

Query: Write pKd of CCS(=O)(=O)Nc1ccc(Oc2ccc(F)cc2F)c(-c2cn(C)c(=O)c3[nH]ccc23)c1 ; system used: Bromodomain adjacent to zinc finger domain protein 2B (Homo sapiens)
Result: < 6.00

* * *

Kindly state bioavailability for each of the entries shown.
test: Oral bioavailability in mouse at 10 mg/kg; format: ADME, organism-based; settings: in vivo
Numbers only, in %.

> print(dat)
                                chem.smiles  obs.value
1  Cn1cc(-c2cc(NS(C)(=O)=O)ccc2Oc2ccccc2)c2cc[nH]c2c1=O         55

Query: Give the measured bioavailability for Cn1cc(-c2cc(NS(C)(=O)=O)ccc2Oc2ccc(F)cc2F)c2cc[nH]c2c1=O
Result: 65

* * *

biological target: Transcription initiation factor TFIID subunit 1-like (Homo sapiens, UniProt Q8IZX4); assay: Binding affinity to human TAF1L (2) (Q1523 to D1654 residues) expressed in bacterial expression system by BROMOscan assay
measurement_label: Kd

Query: Write Kd of CCS(=O)(=O)Nc1ccc(Oc2ccc(F)cc2F)c(-c2cn(C)c(=O)c3[nH]ccc23)c1 [MIVEBRESIB] ; system used: Transcription initiation factor TFIID subunit 1-like (Homo sapiens, UniProt Q8IZX4)
Result: > 1000 nM

* * *

assay: Half life in po dosed dog; type: ADME, organism-based, Canis lupus familiaris; settings: in vivo
measurement_label: half-life (h)
Answers are plain numbers, in h.

Query: Give the measured half-life for CCS(=O)(=O)Nc1ccc(Oc2ccc(F)cc2F)c(-c2cn(C)c(=O)c3[nH]ccc23)c1
Result: 5.8

* * *

assay: Intrinsic clearance in dog hepatocytes; assay type: ADME, cell-based, Canis lupus familiaris, Hepatocyte; settings: read-out: CLH (converted)
measurement_label: CLint scaled

Query: Give the measured CLint scaled for CCS(=O)(=O)Nc1ccc(Oc2ccc(F)cc2F)c(-c2cn(C)c(=O)c3[nH]ccc23)c1
Result: 35 mL/min/kg

* * *

target: Bromodomain-containing protein 7 (Homo sapiens); assay: Binding affinity to human BRD7 (L125 to R254 residues) expressed in mammalian expression system by BROMOscan assay
Sequence (Q9NPI1 whole entry, the tested form may be a part): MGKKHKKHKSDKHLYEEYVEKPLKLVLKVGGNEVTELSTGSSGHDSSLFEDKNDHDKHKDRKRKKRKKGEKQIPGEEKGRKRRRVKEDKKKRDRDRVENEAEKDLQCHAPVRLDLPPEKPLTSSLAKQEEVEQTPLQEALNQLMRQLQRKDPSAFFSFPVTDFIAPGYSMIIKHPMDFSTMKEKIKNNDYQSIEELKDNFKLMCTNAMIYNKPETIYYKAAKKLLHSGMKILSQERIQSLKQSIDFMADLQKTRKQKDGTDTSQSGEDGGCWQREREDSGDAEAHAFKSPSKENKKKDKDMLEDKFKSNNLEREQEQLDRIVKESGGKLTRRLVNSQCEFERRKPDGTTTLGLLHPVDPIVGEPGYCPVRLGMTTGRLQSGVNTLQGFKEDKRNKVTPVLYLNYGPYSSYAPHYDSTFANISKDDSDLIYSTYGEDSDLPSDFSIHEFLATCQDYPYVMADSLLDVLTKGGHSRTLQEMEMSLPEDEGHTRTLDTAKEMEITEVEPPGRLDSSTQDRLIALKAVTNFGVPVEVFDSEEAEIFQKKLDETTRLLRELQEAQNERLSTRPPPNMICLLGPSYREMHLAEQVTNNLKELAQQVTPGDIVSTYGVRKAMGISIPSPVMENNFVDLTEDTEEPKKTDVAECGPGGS
measurement_label: Kd

Query: Give the measured Kd for CCS(=O)(=O)Nc1ccc(Oc2ccc(F)cc2F)c(-c2cn(C)c(=O)c3[nH]ccc23)c1 [MIVEBRESIB]
Result: > 1 µM

* * *

test system: Rattus norvegicus; test: Plasma unbound clearance in rat at 1 mg/kg, iv; format: ADME, organism-based; settings: in vivo
Kindly state clearance for each of the entries shown.
Numbers only, in mL/min/kg.

A selection of reference data follows.
> print(dat)
                                chem.smiles  obs.value
1  CCS(=O)(=O)Nc1ccc(Oc2ccc(F)cc2F)c(-c2cn(C)c(=O)c3[nH]ccc23)c1        450
2  Cn1cc(-c2cc(NS(C)(=O)=O)ccc2Oc2ccccc2)c2cc[nH]c2c1=O       1230

Next:
Query: Give the measured clearance for Cn1cc(-c2cc(NS(C)(=O)=O)ccc2Oc2ccc(F)cc2F)c2cc[nH]c2c1=O
Result: 417

* * *

test: Oral bioavailability in dog; assay type: ADME, organism-based, Canis lupus familiaris; conditions: in vivo
measurement_label: bioavailability (%)
Answers are plain numbers, in %.

Query: Give the measured bioavailability for CCS(=O)(=O)Nc1ccc(Oc2ccc(F)cc2F)c(-c2cn(C)c(=O)c3[nH]ccc23)c1 [MIVEBRESIB]
Result: 41

* * *

assay: Intrinsic clearance in mouse hepatocytes; format: ADME, cell-based, Hepatocyte; settings: read-out: CLH (converted)
measurement_label: CLint scaled (mL/min/kg)
One number for each entry, in mL/min/kg.

Query: Give the measured CLint scaled for CCS(=O)(=O)Nc1ccc(Oc2ccc(F)cc2F)c(-c2cn(C)c(=O)c3[nH]ccc23)c1
Result: 58.3

* * *

assay: Fraction unbound in rat plasma at 1 uM after 4 hrs by LC-MS/MS method; format: ADME, cell-free
measurement_label: fraction unbound at 4 h, 1 µM

> print(dat)
                                chem.smiles  obs.value
1  CCS(=O)(=O)Nc1ccc(Oc2ccc(F)cc2F)c(-c2cn(C)c(=O)c3[nH]ccc23)c1      0.023
2  Cn1cc(-c2cc(NS(C)(=O)=O)ccc2Oc2ccccc2)c2cc[nH]c2c1=O      0.034

Next:
Query: Give the measured fraction unbound at 4 h, 1 µM for Cn1cc(-c2cc(NS(C)(=O)=O)ccc2Oc2ccc(F)cc2F)c2cc[nH]c2c1=O
Result: 0.036

* * *

target: Protein polybromo-1 (Homo sapiens, UniProt Q86U86); experiment: Binding affinity to human PBRM1 bromodomain-2 (S178 to E291 residues) expressed in bacterial expression system by BROMOscan assay
Sequence (Q86U86 whole entry, the tested form may be a part): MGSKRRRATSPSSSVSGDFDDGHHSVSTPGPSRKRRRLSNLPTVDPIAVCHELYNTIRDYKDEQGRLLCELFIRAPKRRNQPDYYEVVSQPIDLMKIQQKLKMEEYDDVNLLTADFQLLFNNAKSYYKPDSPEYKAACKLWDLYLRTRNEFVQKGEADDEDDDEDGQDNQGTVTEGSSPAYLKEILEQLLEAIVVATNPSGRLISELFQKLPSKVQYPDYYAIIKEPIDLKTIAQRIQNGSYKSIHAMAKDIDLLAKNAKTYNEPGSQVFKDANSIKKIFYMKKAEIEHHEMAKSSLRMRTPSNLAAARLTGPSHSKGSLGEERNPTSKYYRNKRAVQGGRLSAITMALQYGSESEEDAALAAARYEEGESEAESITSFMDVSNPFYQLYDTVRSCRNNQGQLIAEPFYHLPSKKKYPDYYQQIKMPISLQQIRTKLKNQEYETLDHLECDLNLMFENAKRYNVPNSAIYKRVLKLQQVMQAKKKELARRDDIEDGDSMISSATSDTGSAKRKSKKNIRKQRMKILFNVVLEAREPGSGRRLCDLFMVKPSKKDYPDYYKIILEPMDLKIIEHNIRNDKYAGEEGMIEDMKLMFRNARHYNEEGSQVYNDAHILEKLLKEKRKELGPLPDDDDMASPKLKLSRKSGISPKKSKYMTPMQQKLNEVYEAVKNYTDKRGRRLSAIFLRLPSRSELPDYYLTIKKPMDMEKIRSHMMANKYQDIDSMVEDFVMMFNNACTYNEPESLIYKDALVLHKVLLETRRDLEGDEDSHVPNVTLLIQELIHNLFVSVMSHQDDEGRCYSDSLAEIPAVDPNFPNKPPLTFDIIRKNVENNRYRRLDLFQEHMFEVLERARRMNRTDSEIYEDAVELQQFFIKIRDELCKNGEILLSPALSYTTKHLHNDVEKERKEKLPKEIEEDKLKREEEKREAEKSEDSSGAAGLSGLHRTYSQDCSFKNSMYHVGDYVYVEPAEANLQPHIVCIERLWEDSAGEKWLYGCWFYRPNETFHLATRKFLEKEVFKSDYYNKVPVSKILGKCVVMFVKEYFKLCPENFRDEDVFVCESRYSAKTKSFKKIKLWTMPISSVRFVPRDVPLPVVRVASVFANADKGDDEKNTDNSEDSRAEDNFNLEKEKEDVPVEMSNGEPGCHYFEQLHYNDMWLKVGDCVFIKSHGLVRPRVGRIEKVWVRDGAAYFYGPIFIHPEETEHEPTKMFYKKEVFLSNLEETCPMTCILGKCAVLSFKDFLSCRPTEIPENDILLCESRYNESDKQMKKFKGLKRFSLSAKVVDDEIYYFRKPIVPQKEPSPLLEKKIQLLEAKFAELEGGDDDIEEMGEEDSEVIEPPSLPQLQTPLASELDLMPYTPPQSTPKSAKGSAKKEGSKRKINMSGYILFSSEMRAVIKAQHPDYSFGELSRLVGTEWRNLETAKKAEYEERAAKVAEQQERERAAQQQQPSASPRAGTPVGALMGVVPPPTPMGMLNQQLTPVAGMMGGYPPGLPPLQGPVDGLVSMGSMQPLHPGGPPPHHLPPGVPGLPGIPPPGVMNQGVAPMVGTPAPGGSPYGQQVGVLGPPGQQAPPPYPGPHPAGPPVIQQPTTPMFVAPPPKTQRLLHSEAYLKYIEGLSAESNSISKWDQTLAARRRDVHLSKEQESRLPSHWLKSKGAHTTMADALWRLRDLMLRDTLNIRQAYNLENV
pKd: −log10 of the molar value.
measurement_label: pKd

Query: Give the measured pKd for CCS(=O)(=O)Nc1ccc(Oc2ccc(F)cc2F)c(-c2cn(C)c(=O)c3[nH]ccc23)c1 [MIVEBRESIB]
Result: < 6.00
